- assay_text: NCI Yeast Anticancer Drug Screen. Data for the rad50 strain (AID 155);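 also: 0% = growth of vehicle-only cultures of the same strain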
- details: S. cerevisiae rad50 strain growth inhibition; at 50.0 µM
This is part of a sample that, as a whole, favours compounds with a hit. Of some 79,000 tested, about 15% had one in any assay. Calls of active or inactive are those of the source. Rule as the data show it: active = growth inhibition above about 70%; inactive = the rest.
Lab note: assign the record to one of True = active, False = inactive

Examples with answers:
compound | group
CCN(CC)Cc1cc(Nc2c3ccccc3nc3c4ccccc4n(C)c23)ccc1O | True
O=C(O)/C(=C/c1ccccc1)c1ccccc1.[Ag] | True
CCOc1c(N=Nc2ccc(Cl)cc2)c(-c2ccccc2)nn1C(N)=S | True
Cc1cc(C)c(CCCC(=O)c2c(C)cc(C)cc2C)c(C)c1 | False
CN(C)c1ncnc2c1ncn2C | True

Test call for this compound, please: CCOC(=O)Nc1cc2c(cc1Br)-c1ccccc1C2O (centres undefined)
False

Test call for this compound, please: C=C1CC[C@@H](Br)C(C)(C)[C@]12CCC(C)(O)C(Cl)C2 (some centres undefined)
True

Test call for this compound, please: `Cc1nc(C(N)=S)sc1C(=O)C/C(=N/N)C(=O)Nc1cccc(Cl)c1C`
False

Test call for this compound, please: `O=[N+]([O-])c1cc2ccc(O)cc2c2ccccc12`
True

Test call for this compound, please: `CCOC(=O)/C=C(/Cl)C(=O)OCC`
True

Test call for this compound, please: `O=C1C(=O)c2ccccc2C=C1Br`
True

Test call for this compound, please: `O=C1/C(=C/c2ccc(Cl)cc2)CCC/C1=C\c1ccc(O)c(CN2CCCCC2)c1`
False

Test call for this compound, please: `Nc1ncnc2c1c(-c1ccccc1)cn2-c1ccccc1`
True

Test call for this compound, please: `O=C1/C(=C/c2ccccc2)CCC/C1=C\c1ccc(O)c(CN2CCCCC2)c1`
False

Test call for this compound, please: O=C1CCCC1C(=O)OC1CCCC1 (centres undefined)
False

Test call for this compound, please: COC(=O)c1ccc2c(c1)C(O)NC(=O)O2 (centres undefined)
True

Test call for this compound, please: CC(=O)O[C@H]1CC[C@]2(C)C34OC3C[C@]3(C)[C@@H](C(C)=O)CC[C@H]3[C@]43C=C[C@@]2(C1)C1C(=O)OC(=O)C13 (some centres undefined)
True

Test call for this compound, please: `COC(=O)/C=C/c1cccc[n+]1[O-]`
False

Test call for this compound, please: `Cc1ccc(NC(=O)Oc2ccc(C(C)(C)C)cc2Br)cc1NC(=O)Oc1ccc(C(C)(C)C)cc1Br`
False

Test call for this compound, please: `O=C1C(=O)C(Cl)=C(Cl)C(Cl)=C1Cl`
True

Test call for this compound, please: `CNc1ccc2c(c1)Cc1ccccc1-2`
True

Test call for this compound, please: `c1cc[c]([Sn]([S]c2ccccn2)([c]2ccccc2)[c]2ccccc2)cc1`
True

Test call for this compound, please: `C/C=C/C=N/N(c1nnc(-c2ccccc2)c(-c2ccccc2)n1)S(=O)(=O)c1ccc(C)cc1`
True

Test call for this compound, please: `COC(OC)(c1ccccc1)C(Br)Br`
True

* * *

- assay_text: NCI Yeast Anticancer Drug Screen. Data for the cln2 rad14 strain (AID 165);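 also: 0% = growth equal to vehicle treated cultures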
- details: S. cerevisiae cln2 rad14 strain, at 50.0 µM (retest, dose inferred, filed as 5.0), hits give high values
The panel holds about 79,000 compounds, 15% with a hit somewhere; the sample as a whole holds those more often.
Readings of growth inhibition for the listed molecules
Give the value in % but do not write % after it.

molecule | display_unit | value_measured
CC1CCCN(CC(O)CN2CCCc3ccccc32)C1 (configuration not stated) | % | 33
C=CCOC(=O)C#CCCCC | % | 5
CN(C)c1ccc(/C=C/C(=O)c2ccc([N+](=O)[O-])cc2)cc1 | % | 41
O=C(SCCCc1ccccc1)c1cc([N+](=O)[O-])cc([N+](=O)[O-])c1 | % | 89
O=C1CC(c2ccccc2)c2c(ccc3ccccc23)O1 (configuration not stated) | % | 77
Cn1cc(NC(=O)c2cc(NC(=O)CCCCCCC(=O)Nc3cc(C(=O)Nc4cc(C(=O)NCCC(=N)N)n(C)c4)n(C)c3)cn2C)cc1C(=O)NCCC(=N)N | % | 95

Please examine the following record next.
State the recorded growth inhibition for this entry: O=C(c1ccc(Oc2ccccc2)cc1)C(C(c1ccccc1)N1CCOCC1)N1CCOCC1 (configuration not stated)
-1

* * *

- assay_text: NCI Yeast Anticancer Drug Screen. Data for the rad50 strain (AID 155);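 also: 0% = growth of vehicle-only cultures of the same strain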
- details: S. cerevisiae rad50 strain growth inhibition; at 5.0 µM (retest, dose inferred, filed as 0.5)
About 79,000 compounds went through this panel and 15% of them were active in at least one assay; those are over-represented in the sample as a whole. Active and inactive are the calls of the source. Cut-off read from the data, not from the text of the source: active = growth inhibition above about 70%; inactive = the rest.
Lab note: assign the record to one of active, inactive

Examples with answers:
molecule | group
O=C(CCCCCCCCCCc1ccccc1)c1c(O)cccc1O | inactive
CC1=NOC(=O)/C1=C/C=C/c1ccccc1 | inactive
CC(C)=CCC/C(C)=C/CC/C(C)=C/CC/C=C(\C)CC/C=C(\C)CCC[N+](C)(C)[O-] | inactive

Test call for this molecule, please: `COC(=O)c1ccc(SCCC(=O)CCl)cc1`
inactive

Test call for this molecule, please: `C/C(O)=C(/C=N\C(=S)Nc1ccc(Cl)c(Cl)c1)C(=O)Nc1ccccc1C`
inactive

Test call for this molecule, please: NC(=S)c1cccc(C2Nc3ccccc3O2)c1 (configuration not stated)
inactive

Test call for this molecule, please: O=C1CC(c2ccccc2)c2c(ccc3ccccc23)O1 (configuration not stated)
inactive

Test call for this molecule, please: `NC(N)=Nc1ccc(N=C(N)N)cc1`
inactive

Test call for this molecule, please: `N#Cc1ccc([N+](=O)[O-])cc1C#N`
inactive

Test call for this molecule, please: `O=[N+]([O-])c1cccc(/C=N/Nc2ccc3ccccc3n2)c1O`
inactive

Test call for this molecule, please: `O=C1C=CC(=O)C(c2ccccc2)=C1`
inactive

Test call for this molecule, please: `COc1cc2c(c(O)c1C)C(=O)C(Cl)=CC2=O`
active

* * *

- assay_text: NCI Yeast Anticancer Drug Screen. Data for the sgs1 mgt1 strain (AID 161);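 also: 0% = growth of cultures given vehicle only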
- details: S. cerevisiae sgs1 mgt1 strain, at 5.0 µM (retest, dose inferred, filed as 0.5), hits give high values
This is part of a sample that, as a whole, favours compounds with a hit. Of some 79,000 tested, about 15% had one in any assay.
Readings of growth inhibition for the listed compounds
Give the value in % but do not write % after it.

compound | growth inhibition (%)
CC(C)C(Sc1nc(-c2ccccc2)c(-c2ccccc2)[nH]1)C(=O)NN (stereo unspecified) | -3
Cc1ccc(C2COc3cc(O)c(O)cc3C2)cc1 (stereo unspecified) | 32
NC(=O)C#CC#CC#CCO | 18
CC(C(=O)N1C(=O)N(C(=O)C(C)C(O)c2ccccc2)C(c2ccccc2)C1c1ccccc1)C(O)c1ccccc1 (stereo unspecified) | -9
CCc1ccccc1NC(=O)C(=O)CC(=O)c1ccc(Cl)s1 | -1

State the recorded growth inhibition for this entry: `CC1(C)NNC(=S)NN1`
4

* * *

Readings of growth inhibition for the listed compounds
- assay_text: NCI Yeast Anticancer Drug Screen. Data for the mlh1 rad18 strain (AID 175)
- details: S. cerevisiae mlh1 rad18 strain growth inhibition; at 50.0 µM (retest, dose inferred, filed as 5.0); hits give high values
- Protocol: Growth inhibition of yeast strains with defined genetic alterations is measured as a screen for potential anti-cancer activity. Selected strains with alterations in DNA damage repair or cell cycle control were exposed to compounds and growth inhibition was measured relative to vehicle treated controls. The strain used in this assay is mlh1 rad18
Compounds without any hit were thinned out: in the full panel of roughly 79,000, 15% have a hit. Calls of active or inactive are those of the source. Cut-off read from the data, not from the text of the source: active = growth inhibition above about 70%; inactive = the rest.

Consider the following illustrative entries.
compound | growth inhibition
COC(=O)c1cccc2c3ccccc3c3ccccc3c12 | 99% (active)
CCCC#CC(O)(C(=O)OC1CCN(C)CC1)C1CCCCC1 (stereo unspecified) | 79% (active)
CCCCCCc1ccc(O)c(Cl)c1 | 19% (inactive)
Cc1cc(C)nc(CCSS(=O)(=O)O)c1 | 6% (inactive)
Nc1ccccc1N=Cc1ccccc1O | 80% (active)
CC(/C=C/c1ccc(Cl)c(Cl)c1)=N\NC(N)=S | 81% (active)

State the recorded growth inhibition for this entry: `O=C1CCS(=O)(=O)c2ccccc21`
99% (active)

State the recorded growth inhibition for this entry: `COC(=O)c1ccc(SCCC(=O)CCl)cc1`
99% (active)

State the recorded growth inhibition for this entry: `c1ccc2c(c1)[nH]c1c[n+]3c(c[n+]12)[nH]c1ccccc13`
84% (active)

State the recorded growth inhibition for this entry: CCCCCCC(C)S(=O)(=O)c1ccc(C)cc1 (stereo unspecified)
47% (inactive)

State the recorded growth inhibition for this entry: COC(=O)C1CCC(=O)N1C(c1ccc(OC)cc1)c1cc(OC)c(OC)c(OC)c1 (stereo unspecified)
20% (inactive)

* * *

- assay_text: NCI Yeast Anticancer Drug Screen. Data for the sgs1 mgt1 strain (AID 161);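 also: 0% = growth of cultures given vehicle only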
- details: S. cerevisiae sgs1 mgt1 strain, at 50.0 µM (retest, dose inferred, filed as 5.0)
- Experimental: Growth inhibition of yeast strains with defined genetic alterations is measured as a screen for potential anti-cancer activity. Selected strains with alterations in DNA damage repair or cell cycle control were exposed to compounds and growth inhibition was measured relative to vehicle treated controls. The strain used in this assay is sgs1 mgt1
About 79,000 compounds went through this panel and 15% of them were active in at least one assay; those are over-represented in the sample as a whole. The source made the active and inactive calls. Rule as the data show it: active = growth inhibition above about 70%; inactive = the rest.
Lab note: assign the record to one of Yes (active), No (inactive)

Examples with answers:
compound | group
CCN(CC)CCNc1c(O)cc(C)c2sc3ccccc3c(=O)c12 | Yes
NC(Cc1nn[nH]n1)C(=O)O (stereo unspecified) | No
O=C(O)c1c(-c2ccccc2)cc(-c2ccccc2)cc1-c1ccccc1 | Yes
CN(C)c1ccc(C=Nc2cnc3ccccc3c2)cc1 | No
ClC1=C(Cl)C(Cl)(C(Cl)(Cl)Cl)C(Cl)=C1Cl | Yes

Test call for this compound, please: `Oc1c(Cl)cccc1-c1ccccc1`
No

Test call for this compound, please: `CCc1nc(N)nc(N)c1-c1ccc(N2CCCCC2)c([N+](=O)[O-])c1`
No

Test call for this compound, please: `Cc1ccc(S(=O)(=O)C2C=CC=CC=C2)cc1`
Yes

Test call for this compound, please: `O=c1cccccc1O.O=c1cccccc1O.O=c1cccccc1O.[Ru]`
Yes

Test call for this compound, please: COC(=O)CCC(NC(=S)N/N=C(\C)c1cnc2ccccc2n1)C(=O)OC (stereo unspecified)
No

Test call for this compound, please: Cc1ccc(S(=O)(=O)N/N=C2/CCC3(O)CC2(C)CCC2[C@H]3CC2(C)C)cc1 (stereo partly specified)
No
